Values were extracted from the antibiotic and cytotoxicity screens of Wong et al. (2023).

Tested on: HepG2
Experiment: cytotoxicity call (relative viability < 0.9)
Conditions: 10 µM
The whole screen tested about 39,000 compounds, of which about 3,300 (8.5%) were called active. Many of the other results were omitted from the sample, so actives are more common in it than they were.
Lab note: assign the record to one of y = active, n = inactive

given_smiles: COc1ccc(S(=O)(=O)Nc2cccc3c2O[C@H](CN(C)Cc2ccc(-c4ccccc4)cc2)[C@H](C)CN([C@H](C)CO)C3=O)cc1
label: n

given_smiles: C[C@H]1CN([C@@H](C)CO)C(=O)c2cccc(NS(=O)(=O)c3ccc(F)cc3)c2O[C@@H]1CN(C)Cc1ccc(Oc2ccccc2)cc1
label: n

given_smiles: C[C@@H]1CN([C@@H](C)CO)C(=O)c2cccc(NS(=O)(=O)c3ccc(Cl)cc3)c2O[C@H]1CN(C)Cc1ccc(Oc2ccccc2)cc1
label: n

given_smiles: COc1ccc(S(=O)(=O)Nc2cccc3c2O[C@H](CN(C)Cc2ccc(-c4ccccc4)cc2)[C@H](C)CN([C@@H](C)CO)C3=O)cc1
label: n

Tell me the recorded outcome of this test for C[C@H]1CN([C@@H](C)CO)C(=O)c2cccc(NS(=O)(=O)c3ccc(Cl)cc3)c2O[C@@H]1CN(C)Cc1ccc(Oc2ccccc2)cc1 .
y

Then C[C@@H]1CN([C@@H](C)CO)C(=O)c2cccc(NS(=O)(=O)c3ccc(F)cc3)c2O[C@H]1CN(C)Cc1ccc(Oc2ccccc2)cc1 ?
n

// query: COc1ccc(S(=O)(=O)Nc2cccc3c2O[C@H](CN(C)Cc2ccc(Oc4ccccc4)cc2)[C@@H](C)CN([C@H](C)CO)C3=O)cc1
n
